Hey, just so you know, these numbers are from ChEMBL document CHEMBL4270642.

molecular target: Signal peptidase I (Escherichia coli K-12); experiment: Inhibition of Escherichia coli type 1 signal peptidase lepB assessed as residual activity at 0.0391 uM preincubated for 10 mins followed by Dabcyl-VGGTATAYGAFSRPGLE-(EDANS)-OH substrate addition measured after 2 hrs by FRET based assay (reference value: 100%)
Square brackets hold non-standard residues; d marks the D form. Peptide text beside a SMILES is read from it. * marks the point of attachment. Benzoyl(4-(4-hexylphenyl)) = CCCCCCc1ccc(-c2ccc(C(=O)*)cc2)cc1; X1 = C[C@H](N*)B1OC2C[C@@H]3C[C@@H](C3(C)C)[C@]2(C)O1; Orn = NCCC[C@H](N)C(=O)O
READOUT_LABEL: Activity (%)

COMPOUND	READOUT_LABEL	SCALE_UNIT	READOUT_VALUE
CCCCCCc1ccc(-c2ccc(C(=O)N[C@@H](CCCN)C(=O)N[C@H](C(=O)N[C@@H](C)C(=O)N[C@H]3Cc4cn(nn4)CCO[C@@H]4C[C@@H]5OB(O[C@@H]5C4)[C@H](C)NC3=O)[C@@H](C)O)cc2)cc1	Activity	%	77.8
CCCCCCc1ccc(-c2c[nH]c3ccc(C(=O)N[C@@H](CCCN)C(=O)N[C@H](C(=O)N[C@@H](C)C(=O)N[C@H]4Cc5cn(nn5)CCO[C@@H]5C[C@@H]6OB(O[C@@H]6C5)[C@H](C)NC4=O)[C@@H](C)O)cc23)cc1	Activity	%	94.2
CCCCCCc1ccc(-c2nc3cc(C(=O)N[C@@H](CCCN)C(=O)N[C@H](C(=O)N[C@@H](C)C(=O)N[C@H]4Cc5cn(nn5)CCO[C@@H]5C[C@@H]6OB(O[C@@H]6C5)[C@H](C)NC4=O)[C@@H](C)O)ccc3[nH]2)cc1	Activity	%	40.6
CCCCCCc1ccc(-c2ccc(C(=O)N[C@@H](CCCN)C(=O)N[C@H](C(=O)N[C@@H](C)C(=O)N[C@H]3Cc4cn(nn4)CCCN4C[C@@H]5OB(O[C@@H]5C4)[C@H](C)NC3=O)[C@@H](C)O)cc2)cc1	Activity	%	47.9
CCCCCCc1ccc(-c2ccc(C(=O)N[C@@H](CCCN)C(=O)N[C@H](C(=O)N[C@@H](C)C(=O)N[C@@H](CC(N)=O)C(=O)N[C@@H](C)B3OC4C[C@@H]5C[C@@H](C5(C)C)[C@]4(C)O3)[C@@H](C)O)cc2)cc1 (stereo partly drawn) ({Benzoyl(4-(4-hexylphenyl))}-[Orn]TAN-X1)	Activity	%	24.9
CCCCCCc1ccc(-c2ccc(C(=O)N[C@@H](CCCN)C(=O)N(C)[C@H](C(=O)N[C@@H](C)C(=O)N[C@H]3Cc4cn(nn4)CCCN4C[C@@H]5OB(O[C@@H]5C4)[C@H](C)NC3=O)[C@@H](C)O)cc2)cc1	Activity	%	69.9
C[C@@H]1NC(=O)[C@@H](NC(=O)[C@H](C)NC(=O)[C@@H](NC(=O)[C@H](CCCN)NC(=O)c2ccc(=O)n(-c3ccccc3)c2)[C@@H](C)O)Cc2cn(nn2)CCO[C@@H]2C[C@@H]3OB1O[C@@H]3C2	Activity	%	91.6
CCCCCCc1ccc(-c2ccc(C(=O)N[C@@H](CCCN)C(=O)N[C@H](C(=O)N[C@@H](C)C(=O)N[C@H]3Cc4cn(nn4)CCN4C[C@@H]5OB(O[C@@H]5C4)[C@H](C)NC3=O)[C@@H](C)O)cc2)cc1	Activity	%	63.8
